# tested on: Angiotensin-converting enzyme (Homo sapiens)
# Sequence (P12821 whole entry): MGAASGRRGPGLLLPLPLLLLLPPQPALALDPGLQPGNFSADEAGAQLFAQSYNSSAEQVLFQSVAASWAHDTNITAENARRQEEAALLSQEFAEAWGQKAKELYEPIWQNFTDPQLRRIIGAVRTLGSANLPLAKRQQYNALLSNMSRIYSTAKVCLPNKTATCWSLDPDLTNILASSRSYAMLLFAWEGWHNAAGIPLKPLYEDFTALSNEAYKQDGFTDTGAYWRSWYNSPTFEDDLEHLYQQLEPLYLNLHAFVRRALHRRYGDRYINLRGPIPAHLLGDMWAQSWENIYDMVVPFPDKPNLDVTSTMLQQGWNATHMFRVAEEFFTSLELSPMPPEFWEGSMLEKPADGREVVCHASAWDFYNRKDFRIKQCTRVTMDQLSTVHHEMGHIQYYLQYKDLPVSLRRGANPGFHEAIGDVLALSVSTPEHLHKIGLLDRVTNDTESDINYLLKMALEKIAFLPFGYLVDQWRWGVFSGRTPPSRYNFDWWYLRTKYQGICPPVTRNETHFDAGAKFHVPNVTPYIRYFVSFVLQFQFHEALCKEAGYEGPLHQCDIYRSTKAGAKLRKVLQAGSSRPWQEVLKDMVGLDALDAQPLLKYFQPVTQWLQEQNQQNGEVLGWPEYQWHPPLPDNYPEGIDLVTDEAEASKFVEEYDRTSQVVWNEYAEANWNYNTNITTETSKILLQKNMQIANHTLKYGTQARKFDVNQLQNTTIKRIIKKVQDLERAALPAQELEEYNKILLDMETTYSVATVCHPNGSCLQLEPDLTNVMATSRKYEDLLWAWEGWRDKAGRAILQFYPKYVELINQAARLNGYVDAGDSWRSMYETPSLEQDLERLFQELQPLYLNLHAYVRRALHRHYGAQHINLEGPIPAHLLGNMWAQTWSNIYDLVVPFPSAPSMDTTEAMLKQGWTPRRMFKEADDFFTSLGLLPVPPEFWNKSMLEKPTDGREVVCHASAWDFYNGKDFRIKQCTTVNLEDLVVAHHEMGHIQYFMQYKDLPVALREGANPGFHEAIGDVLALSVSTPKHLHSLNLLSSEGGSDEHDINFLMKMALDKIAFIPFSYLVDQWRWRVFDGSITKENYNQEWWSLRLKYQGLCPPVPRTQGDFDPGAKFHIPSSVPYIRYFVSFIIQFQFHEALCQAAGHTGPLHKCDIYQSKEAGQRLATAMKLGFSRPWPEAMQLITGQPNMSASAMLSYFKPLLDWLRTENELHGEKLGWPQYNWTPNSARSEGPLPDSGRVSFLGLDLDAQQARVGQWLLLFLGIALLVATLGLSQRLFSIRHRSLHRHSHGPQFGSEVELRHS
# test protocol: Biological activity was measured against Angiotensin I converting enzyme
# protocol conditions: read-out: Log 1/IC50 (converted)
Peptide text beside a SMILES is read from it.
measure: IC50 (µM)

Worked cases, IC50 given:
C[C@H](N)C(=O)N[C@@H](Cc1c[nH]c2ccccc12)C(=O)O (H-Ala-Trp-OH) | 10
NC(N)=NCCC[C@H](N)C(=O)N[C@@H](Cc1c[nH]c2ccccc12)C(=O)O (H-Arg-Trp-OH) | 15.8

[P] NCC(=O)N[C@@H](CO)C(=O)O (H-Gly-Ser-OH)
[Q] N=C(N)NCCC[C@H](NC(=O)[C@@H](N)Cc1ccccc1)C(=O)O (H-Phe-Arg-OH)
Task: Compare IC50: is it lower for P or for Q ? // output: label of the selected item
Result: Q

[A] CC[C@H](C)[C@H](N)C(=O)N[C@@H](Cc1c[nH]c2ccccc12)C(=O)O
[B] C[C@@H](O)[C@H](NC(=O)CN)C(=O)O (H-Gly-Thr-OH)
[C] C[C@H](NC(=O)[C@@H](N)CCCCN)C(=O)O (H-Lys-Ala-OH)
[D] NCC(=O)N[C@@H](Cc1c[nH]cn1)C(=O)O (H-Gly-His-OH)
Task: Rank items: key IC50, increasing. Please express your ranking as an ordered list of the labels.
Result: A, C, D, B
(A: 2 µM, C: 380 µM, D: 3090 µM, B: 5750 µM)
